Numbers sourced from paper PMC3722118.

# Measured On: human α3β1 NaK complex (Homo sapiens)
# Construct: made in house; host or cells: Pichia pastoris strain SMD1165 (membranes)
# Procedure Text: 3H-ouabain competitive displacement on P. pastoris membranes
# Type: binding
# Study Conditions: ratio of KD α-1 to KD α-3
Parameter: Selectivity α-1 / α-3

Molecule | Measured On | Parameter | Reading
C[C@]12CC[C@H]3[C@@H](CC[C@]4(O)C[C@@H](O)CC[C@]34C=O)[C@@]1(O)CC[C@@H]2c1ccc(=O)oc1 | human α3β1 NaK complex (Homo sapiens) | Selectivity α-1 / α-3 | 0.5
C[C@]12CC[C@H](O)C[C@H]1CC[C@@H]1[C@@H]2[C@H](O)C[C@]2(C)[C@@H](c3ccc(=O)oc3)CC[C@]12O | human α3β1 NaK complex (Homo sapiens) | Selectivity α-1 / α-3 | 1.0
C[C@@H]1O[C@@H](O[C@H]2CC[C@@]3(C)[C@H](CC[C@@H]4[C@@H]3[C@H](O)C[C@]3(C)[C@@H](c5ccc(=O)oc5)CC[C@]43O)C2)[C@H](O)[C@H](O)[C@H]1O [Gamabufotalin-rhamnoside] | human α3β1 NaK complex (Homo sapiens) | Selectivity α-1 / α-3 | 1.8
C[C@@H]1O[C@@H](O[C@H]2CC[C@]3(C=O)[C@H]4CC[C@]5(C)[C@@H](c6ccc(=O)oc6)CC[C@]5(O)[C@@H]4CC[C@]3(O)C2)[C@H](O)[C@H](O)[C@H]1O[C@@H]1O[C@H](CO)[C@@H](O)[C@H](O)[C@H]1O | human α3β1 NaK complex (Homo sapiens) | Selectivity α-1 / α-3 | 0.5
